# MEASUREMENT TARGET: PPARδ (Homo sapiens (Human), UniProt Q03181)
# Sequence (Q03181 whole entry, species assumed): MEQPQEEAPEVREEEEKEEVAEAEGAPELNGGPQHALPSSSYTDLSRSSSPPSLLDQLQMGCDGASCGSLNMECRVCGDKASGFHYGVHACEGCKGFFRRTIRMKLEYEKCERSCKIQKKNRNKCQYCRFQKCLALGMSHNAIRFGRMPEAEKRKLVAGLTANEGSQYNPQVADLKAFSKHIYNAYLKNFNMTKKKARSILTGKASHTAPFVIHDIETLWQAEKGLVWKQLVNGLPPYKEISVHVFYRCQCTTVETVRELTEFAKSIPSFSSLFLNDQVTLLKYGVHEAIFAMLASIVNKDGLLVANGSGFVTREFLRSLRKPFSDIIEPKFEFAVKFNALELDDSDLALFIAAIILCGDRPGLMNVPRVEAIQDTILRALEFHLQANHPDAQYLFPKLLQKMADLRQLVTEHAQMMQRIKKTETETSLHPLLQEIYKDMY
# Sequence (P19793 whole entry partner, species assumed): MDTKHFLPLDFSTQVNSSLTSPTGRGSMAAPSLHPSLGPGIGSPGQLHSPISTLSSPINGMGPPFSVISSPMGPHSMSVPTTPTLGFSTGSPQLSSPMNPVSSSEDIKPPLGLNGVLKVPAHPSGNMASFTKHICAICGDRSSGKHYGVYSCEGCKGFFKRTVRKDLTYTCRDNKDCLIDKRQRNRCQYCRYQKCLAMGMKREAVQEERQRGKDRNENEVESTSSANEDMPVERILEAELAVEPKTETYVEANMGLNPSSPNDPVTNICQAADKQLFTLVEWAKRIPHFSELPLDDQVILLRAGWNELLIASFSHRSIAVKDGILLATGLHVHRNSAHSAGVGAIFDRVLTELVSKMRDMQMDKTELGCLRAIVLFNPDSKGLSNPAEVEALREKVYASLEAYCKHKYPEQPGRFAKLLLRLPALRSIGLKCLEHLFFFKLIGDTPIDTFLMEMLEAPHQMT
# PROTOCOL DESCRIPTION: Nuclear receptor reporter gene (luciferase) screening model, PPARδ activation in HepG2 cells
# Format: cell-based
# RECORDED CONDITIONS: 10 uM; HepG2; solvent control = 1
Would you mind labelling by Experiment results (relative activation fold) PPARδ? At or over 4 fold is t, under is f.

Exercise: API: above_or_equal(metric=Experiment results (relative activation fold) PPARδ, cutoff=4 fold) for item CCc1cc(OCCc2nc(-c3ccc(C(F)(F)F)cc3)oc2C)ccc1CCC(=O)O [Compound 3]
Solution: f

Exercise: Evaluate CCc1cc(OCCc2nc(-c3ccc(C)cc3)oc2C)ccc1CCC(=O)O [Compound 5] : Experiment results (relative activation fold) PPARδ at minimum 4 fold?
Solution: t

Exercise: Check if Experiment results (relative activation fold) PPARδ >= 4 fold (inclusive). Item: CCc1cc(OCCc2coc(-c3ccc(C(F)(F)F)cc3)n2)ccc1CCC(=O)O [Compound 2]
Solution: f

Exercise: Experiment results (relative activation fold) PPARδ >= 4 fold for CCc1cc(OCCc2nc(-c3ccc(C(C)(C)C)cc3)oc2C)ccc1CCC(=O)O [Compound 4] ?
Solution: t

Exercise: Does the molecule CCc1cc(OCCc2nc(-c3ccc(C#N)cc3)oc2C)ccc1CCC(=O)O [Compound 8] have recorded Experiment results (relative activation fold) PPARδ that is 4 fold or more?
Solution: t

Exercise: Could you please find out whether CCc1cc(OCCc2nc(-c3ccc(-c4nnn[nH]4)cc3)oc2C)ccc1CCC(=O)O [Compound 6] has Experiment results (relative activation fold) PPARδ that meets 4 fold or exceeds it?
Solution: f

Exercise: State whether the measured Experiment results (relative activation fold) PPARδ reaches 4 fold, counting equality as reaching it, for CCc1cc(OCCc2nc(-c3ccc(F)cc3)oc2C)ccc1CCC(=O)O [Compound 1]
Solution: f

Exercise: # check: Experiment results (relative activation fold) PPARδ of CCc1cc(OCCc2nc(-c3ccc([N+](=O)[O-])cc3)oc2C)ccc1CCC(=O)O [Compound 7] is greater than or equal to 4 fold
Solution: f
